Data origin: ChEMBL document CHEMBL3044994

# System Tested: Acetylcholinesterase (Rattus norvegicus)
# Sequence (P37136 whole entry): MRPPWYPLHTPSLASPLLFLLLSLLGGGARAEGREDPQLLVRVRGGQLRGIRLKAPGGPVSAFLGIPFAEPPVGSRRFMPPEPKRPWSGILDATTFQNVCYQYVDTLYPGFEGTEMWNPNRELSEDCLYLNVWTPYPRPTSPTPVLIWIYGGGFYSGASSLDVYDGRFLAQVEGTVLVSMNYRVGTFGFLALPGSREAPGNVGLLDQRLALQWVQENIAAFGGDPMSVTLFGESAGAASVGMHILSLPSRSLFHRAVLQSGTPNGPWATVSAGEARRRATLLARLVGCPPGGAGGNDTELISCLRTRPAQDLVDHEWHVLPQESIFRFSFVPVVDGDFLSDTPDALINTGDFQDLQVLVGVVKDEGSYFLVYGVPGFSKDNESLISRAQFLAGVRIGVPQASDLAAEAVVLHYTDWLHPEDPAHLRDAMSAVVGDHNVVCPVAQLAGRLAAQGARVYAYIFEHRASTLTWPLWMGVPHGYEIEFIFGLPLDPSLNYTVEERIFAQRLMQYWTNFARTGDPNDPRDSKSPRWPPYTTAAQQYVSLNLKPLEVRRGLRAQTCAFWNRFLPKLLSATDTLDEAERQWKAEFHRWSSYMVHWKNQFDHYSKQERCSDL
pIC50: −log10 of the molar value.
This section presents molecules with their documented pIC50 values.
Parameter: pIC50

{"Molecule": "COc1cc(OC)c2c(c1)OC(c1cccc(O)c1)CC2=O (stereo unspecified)", "Recorded Number": 6.92}
{"Molecule": "COc1cc(OC)c2c(c1)OC(c1ccc(OC)c(O)c1)CC2=O (stereo unspecified)", "Recorded Number": 6.94}
{"Molecule": "COc1cc(OC)c2c(c1)OC(c1cc(OC)c(O)c(OC)c1)CC2=O (stereo unspecified)", "Recorded Number": 6.97}
{"Molecule": "COc1cc(C2CC(=O)c3ccccc3O2)cc(OC)c1OC(=O)Nc1ccccc1 (stereo unspecified)", "Recorded Number": 7.71}
{"Molecule": "COc1cc(C2CC(=O)c3ccccc3O2)ccc1OC(=O)Nc1ccccc1 (stereo unspecified)", "Recorded Number": 7.66}
{"Molecule": "O=C1CC(c2cccc(O)c2)Oc2ccccc21 (stereo unspecified) [3'-HYDROXYFLAVANONE]", "Recorded Number": 6.83}
{"Molecule": "COc1cc(OC)c2c(c1)OC(c1cc(OC)c(OC(=O)Nc3ccccc3)c([N+](=O)[O-])c1)CC2=O (stereo unspecified)", "Recorded Number": 7.74}
{"Molecule": "COc1ccc(C2CC(=O)c3ccccc3O2)cc1OC(=O)Nc1ccccc1 (stereo unspecified)", "Recorded Number": 7.56}
{"Molecule": "COc1cc(OC)c2c(c1)OC(c1cc(OC)c(O)c([N+](=O)[O-])c1)CC2=O (stereo unspecified)", "Recorded Number": 6.94}
{"Molecule": "COc1cc(OC)c2c(c1)OC(c1cc(OC)c(OC(=O)Nc3ccccc3)c(OC)c1)CC2=O (stereo unspecified)", "Recorded Number": 8.00}
{"Molecule": "COc1cc(OC)c2c(c1)OC(c1ccc(OC(=O)Nc3ccccc3)cc1)CC2=O (stereo unspecified)", "Recorded Number": 7.73}
{"Molecule": "COc1cc(OC)c2c(c1)OC(c1ccc(O)cc1)CC2=O (stereo unspecified)", "Recorded Number": 6.93}
{"Molecule": "O=C1CC(c2ccc(O)cc2)Oc2ccccc21 (stereo unspecified) [4'-HYDROXY-FLAVANONE]", "Recorded Number": 6.84}
{"Molecule": "COc1cc(OO)cc2c1C(=O)CC(c1ccccc1OC(=O)Nc1ccccc1)O2 (stereo unspecified)", "Recorded Number": 7.67}
{"Molecule": "COc1cc(C2CC(=O)c3ccccc3O2)cc([N+](=O)[O-])c1OC(=O)Nc1ccccc1 (stereo unspecified)", "Recorded Number": 7.52}
{"Molecule": "O=C1CC(c2ccccc2O)Oc2ccccc21 (stereo unspecified) [2'-HYDROXY-FLAVANONE]", "Recorded Number": 6.83}
{"Molecule": "COc1cc(OC)c2c(c1)OC(c1ccc(OC(=O)Nc3ccccc3)c(OC)c1)CC2=O (stereo unspecified)", "Recorded Number": 7.89}
{"Molecule": "COc1ccc(C2CC(=O)c3ccccc3O2)cc1O (stereo unspecified)", "Recorded Number": 6.85}
{"Molecule": "COc1cc(OC)c2c(c1)OC(c1ccc(O)c(OC)c1)CC2=O (stereo unspecified)", "Recorded Number": 6.95}
{"Molecule": "O=C(Nc1ccccc1)Oc1cccc(C2CC(=O)c3ccccc3O2)c1 (stereo unspecified)", "Recorded Number": 7.41}
{"Molecule": "O=C(Nc1ccccc1)Oc1ccc(C2CC(=O)c3ccccc3O2)cc1 (stereo unspecified)", "Recorded Number": 7.44}
